target: α1B (Cav2.2), β3 and α2δ subunits of the N-type calcium channel (stable HEK cell line) (Rattus norvegicus, UniProt Q02294); assay: Calcium-dye indicator assay (FDSS, KCl depolarization); conditions: calcium mobilization response to 50 mM KCl; six-point concentration-response
Exercise: state measured log10 IC50 for each of the compounds provided.
Note: values are log10 of IC50 expressed in nM.

1) COc1ccc(-c2cc(C3CC(C)(C)OC(C)(C)C3)nn2-c2ccccc2OC)cn1; 0.69
2) CCc1ccccc1-n1nc(C2CCOCC2)cc1-c1ccc(Cl)cc1; 2.18
3) CNc1ccccc1-n1nc(C2CC(C)(C)OC(C)(C)C2)cc1-c1ccc(Cl)cc1; 0.85

Dear reader, for each entry below, please note its log10 IC50.
1. COc1ccccc1-n1nc(C2CC(C)(C)OC(C)(C)C2)cc1-c1ccc2c(c1)OCCO2
2. COc1ccccc1-n1nc(C2CCOC(C)(C)C2)cc1-c1ccc(Cl)cc1 (centres unmarked)
3. COc1ccccc1-n1nc(C2CC(C)(C)OC(C)(C)C2)cc1-c1ccc(C)cc1
4. COc1ccccc1-n1nc(C2CC(C)(C)OC(C)(C)C2)cc1-c1ccc(OC(C)C)cc1
5. COc1cncc(-c2cc(C3CC(C)(C)OC(C)(C)C3)nn2-c2ccccc2OC)c1

1. 0.18
2. 0.30
3. 0.30
4. 1.04
5. 2.08
